# test-details: Solubility of the compound in water by UV analysis
# Type: physicochemical
Each item that follows carries a reported solubility.

{"columns": ["item-smiles", "units-symbol", "solubility"],
 "data": [
  ["CN(C/C=C/c1ccc(C(F)F)cc1)Cc1ccc2c(c1)OCO2.Cl", "mg/mL", 9.03],
  ["CN(C/C=C/c1ccc2ccccc2c1)Cc1ccc2c(c1)OCO2.Cl", "mg/mL", 4.56],
  ["CN(C/C=C/c1ccc(Br)cc1)Cc1ccc2c(c1)OCO2.Cl", "mg/mL", 17.5],
  ["COc1ccc(/C=C/CN(C)Cc2ccc3c(c2)OCO3)c(F)c1.Cl", "mg/mL", 19.2],
  ["CN(C/C=C/c1ccc(C(F)(F)F)cc1)Cc1ccc2c(c1)OCO2.Cl", "mg/mL", 13.5],
  ["CN(C/C=C/c1ccc(Cl)cc1)Cc1ccc2c(c1)OCO2.Cl", "mg/mL", 18.7],
  ["CN(C/C=C/c1ccc(-c2ccccc2)cc1)Cc1ccc2c(c1)OCO2.Cl", "mg/mL", 5.02],
  ["CCOc1ccc(/C=C/CN(C)Cc2ccc3c(c2)OCO3)cc1.Cl", "mg/mL", 24.2],
  ["CN(C/C=C/C=C/c1ccc(C(F)(F)F)cc1F)Cc1ccc2c(c1)OCO2.Cl", "mg/mL", 8.69]
]}
